# PROCEDURE_DETAILS: Confirmatory qHTS for Identification of Small Molecule Activators of Huntingtin-Antisense Promoter Activity
# EXPERIMENTAL_PARAMETERS: HEK293 HTT-AS promoter firefly luciferase reporter, 24 h; series mostly up to 57.5 µM
# Description: Assay Provider: Russell L. Margolis M.D. Department Neurology, Johns Hopkins University School of Medicine, Baltimore, MD Huntington's Disease (HD) is a neurodegenerative disorder caused by a CAG repeat expansion in exon 1 of huntingtin (HTT). […] 7; Detection; Luminescence; FLuc […] 1; High-throughput screening, measuring luminescence from a Hek293 luciferase reporter, was performed in 1,536 well white-walled tissue-culture treated plates. […]
Activity calls are given as the source filed them. Calls come from the whole dose curve; as a rule, active = well fitted activation curve with a large enough effect; inconclusive = small, poorly fitted or top-dose-only effect; inactive = no such curve, though single readings can be large or run the other way.
One label from this list, please: active, inactive

Recorded results for 10 molecules are shown here.
- MOLECULE: "CCc1c(C)nc2nncn2c1NCc1ccc(OC)cc1"
  GROUP: "inactive"
- MOLECULE: "O=C(NCc1ccccc1)c1cc2ccc3cccnc3c2[nH]1"
  GROUP: "active"
- MOLECULE: "O=C(NCc1ccc(F)cc1)C1CCN(C(=O)c2ccc(-n3ccc4ccccc43)s2)CC1"
  GROUP: "inactive"
- MOLECULE: "COc1ccc(OC2CCN(S(=O)(=O)c3ccc(OC)cc3)CC2)cc1"
  GROUP: "inactive"
- MOLECULE: "Cc1cc(C)cc(NC(=O)Nc2cccs2)c1"
  GROUP: "active"
- MOLECULE: "Cc1cc(Nc2sc(C(=O)c3ccc(F)cc3)c(N)c2C(=O)Nc2ccc(F)cc2)ccc1Cl"
  GROUP: "inactive"
- MOLECULE: "Cc1ccc(C(=O)Nc2nc(-c3nnn(-c4cccc(Cl)c4C)c3C)ns2)cc1C"
  GROUP: "inactive"
- MOLECULE: "Cc1ccc(C(=O)Nc2ccc(F)cc2)cc1S(=O)(=O)N1CCCCCC1"
  GROUP: "inactive"
- MOLECULE: "Cc1ccc(Cl)cc1N1CCN(C(=O)CCS(=O)(=O)c2ccc3c(c2)oc(=O)n3C)CC1"
  GROUP: "inactive"
- MOLECULE: "CCc1cccc2sc(N3CCN(C(=O)c4cc5ccccc5cc4OC)CC3)nc12"
  GROUP: "inactive"

### Prompt Dear all, I need the recorded test outcome for `CCc1nc2ccc(C(=O)NCCc3ccc(OC)cc3OC)cc2nc1CC` , thank you.
### Response inactive

### Prompt GET /call?item= `COc1ccccc1NC(=O)CSc1nnc(NC(=O)Nc2ccc(C)cc2)s1` returns the recorded outcome of this test.
### Response inactive

### Prompt Hello, I am checking results. What call was entered for `COc1cccc(C(=O)NCCSc2c(-c3ccc(F)cc3)[nH]c3ccccc23)c1OC` ?
### Response inactive

### Prompt For CC(=O)N1CCCc2cc(S(=O)(=O)N3CCCC(C(=O)N4CCN(c5ccccc5)CC4)C3)ccc21 (stereo unspecified) , what call appears in the results of this test?
### Response inactive

### Prompt Record request — test call for `CC(C)Oc1ccc(C(=O)N(Cc2ccco2)c2ccccn2)cc1`
### Response active
